Hey, just so you know, these numbers are from patent US20240360228A1.

For each of the binders below, state its MFI.
target: T1, human chemokine (C-C motif) receptor 8 (CCR8) (human, UniProt P51685 1-355); assay: flow cytometry blocking, PBMC CCR8+ CD4+ cells; competitor PE-AB2 (its MFI is read)
T1 construct: On human peripheral blood lymphocytes / PBMC (native) or on human CCR8 GFP-transfected Ba/F3 cells; also called hCCR8; human CCR8
T1 sequence (P51685 whole entry): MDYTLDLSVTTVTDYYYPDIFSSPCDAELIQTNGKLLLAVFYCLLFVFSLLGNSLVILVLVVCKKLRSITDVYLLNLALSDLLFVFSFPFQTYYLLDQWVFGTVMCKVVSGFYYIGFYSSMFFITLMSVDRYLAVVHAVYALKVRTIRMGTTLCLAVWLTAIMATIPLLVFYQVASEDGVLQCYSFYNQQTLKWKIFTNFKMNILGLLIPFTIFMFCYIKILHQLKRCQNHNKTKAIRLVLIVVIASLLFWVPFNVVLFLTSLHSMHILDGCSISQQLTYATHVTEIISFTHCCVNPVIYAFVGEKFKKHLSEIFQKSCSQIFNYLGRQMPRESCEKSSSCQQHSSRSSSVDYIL
# print the numeric value only

Entry AB15 (antibody, V domains shown, Hybridoma monoclonal; also called antibody 15; clone 15) VH: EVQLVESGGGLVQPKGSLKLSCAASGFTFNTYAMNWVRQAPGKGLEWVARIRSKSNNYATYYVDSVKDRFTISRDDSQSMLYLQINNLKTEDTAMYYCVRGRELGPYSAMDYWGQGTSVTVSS VL: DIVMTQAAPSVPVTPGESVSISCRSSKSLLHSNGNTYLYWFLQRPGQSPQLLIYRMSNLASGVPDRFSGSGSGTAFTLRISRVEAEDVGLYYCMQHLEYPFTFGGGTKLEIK — recorded MFI = 1080

Per the records, this binder ( AB8 (antibody, V domains shown, Hybridoma monoclonal; also called antibody 8; clone 8) VH: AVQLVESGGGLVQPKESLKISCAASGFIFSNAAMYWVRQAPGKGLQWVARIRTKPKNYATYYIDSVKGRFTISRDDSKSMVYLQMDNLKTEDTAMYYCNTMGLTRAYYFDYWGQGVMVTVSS VL: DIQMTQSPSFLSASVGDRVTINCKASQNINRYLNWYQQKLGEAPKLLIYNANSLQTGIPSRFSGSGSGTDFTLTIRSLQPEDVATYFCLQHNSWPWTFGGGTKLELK ) has MFI equal to 953
